Hello, the source for this data is PubChem BioAssay AID504329, in case you need it.

# Test Description: H1N1 influenza NS1A inhibitors, functional cell based assay (AID 504329)
# Condition: percent inhibition, at 12.5 µM, hits give high values
Screen size: about 340,000 compounds; about 1,000 (0.29%) were called active. The list is a sample of the results. Measured potencies and affinities stand elsewhere.
Attribute Measured: inhibition (%)
Numbers only, in %.

# map each compound to its inhibition
1. COc1cc(C(=O)NCc2ccccc2)ccc1OC(F)F
2. COc1ccc(NC(=O)CSc2nc3[nH]ncc3c(=O)[nH]2)cc1OC
3. Cc1c2ccccc2cc[n+]1CCCS(=O)(=O)[O-]
4. CCCCC1=C(C(=O)OCC)C(C(=O)OCC)Oc2ccccc21 (stereo not drawn)
5. COc1ccccc1C(=O)NC(=O)COC(=O)c1cnc(C)cn1

1: 2.29; 2: -0.08; 3: 5.16; 4: -8.03; 5: 1.58
